Biological target: T1, human MS4A4A ECL1 peptide (amino acid residues 86-98) (human)
T1 construct: synthetic peptide
T1 peptide: CMASNTYGSNPIS
Assay: peptide ELISA
Quantity name: binding result

# Binder, Result
measured = [
    ("anti-MS4A4A antibody 4A-220 (antibody, V domains shown, murine hybridoma antibody) VH: EVQLQQSGPDLVKPGASVKISCKASGYSFNGYFMNWVMQSHGESLEWIGRINPYNGDTLYNQKFKGKATLTVDKSSSTGHMELRSLASEDSAVYYCARVKGYDYDGAMDYWGQGTSVTVSS VL: DIVMTQSPDSLAVSLGERATINCRSSQSLLQSGNQKSSLAWYQQKPGQPPKLLIFWARTRQSGVPDRFSGSGSGTDFTLTISSVQAEDVAVYYCQQYSDTPFTFGQGTKLEIK", "no binding"),
    ("anti-MS4A4A antibody 4A-205 (murine) (antibody, V domains shown, murine hybridoma antibody) VH: EVQLVESGGDLVKPGGSLKLSCAASGFTFSHYGMSWVRQTPDKRLDWVATIGRDGIHTDYRDSVKGRFTISRDNAKNTLYLQMGSLKSEDSAIFYCARHLYYGLYYSMDYWGQGTSVTVSS VL: ENVLTQSPAIMSASPGEKVTMTCSASSSVSFMYWYQQKSSTSPKLWIYDTSKLASGVPGRFSGSGSGNSYSLTISSMEAEDVATYYCFQGSGYPLTFGSGTKLEIK", "no binding"),
]
